TARGET_OF_ASSAY: T1, human CD22-ECD-His protein (human, UniProt P20273 20-687)
T1 construct: Made in house in HEK293E; also called hCD22-ECD-His; recombinant human CD22-ECD His protein; not shown: His tag
T1 sequence: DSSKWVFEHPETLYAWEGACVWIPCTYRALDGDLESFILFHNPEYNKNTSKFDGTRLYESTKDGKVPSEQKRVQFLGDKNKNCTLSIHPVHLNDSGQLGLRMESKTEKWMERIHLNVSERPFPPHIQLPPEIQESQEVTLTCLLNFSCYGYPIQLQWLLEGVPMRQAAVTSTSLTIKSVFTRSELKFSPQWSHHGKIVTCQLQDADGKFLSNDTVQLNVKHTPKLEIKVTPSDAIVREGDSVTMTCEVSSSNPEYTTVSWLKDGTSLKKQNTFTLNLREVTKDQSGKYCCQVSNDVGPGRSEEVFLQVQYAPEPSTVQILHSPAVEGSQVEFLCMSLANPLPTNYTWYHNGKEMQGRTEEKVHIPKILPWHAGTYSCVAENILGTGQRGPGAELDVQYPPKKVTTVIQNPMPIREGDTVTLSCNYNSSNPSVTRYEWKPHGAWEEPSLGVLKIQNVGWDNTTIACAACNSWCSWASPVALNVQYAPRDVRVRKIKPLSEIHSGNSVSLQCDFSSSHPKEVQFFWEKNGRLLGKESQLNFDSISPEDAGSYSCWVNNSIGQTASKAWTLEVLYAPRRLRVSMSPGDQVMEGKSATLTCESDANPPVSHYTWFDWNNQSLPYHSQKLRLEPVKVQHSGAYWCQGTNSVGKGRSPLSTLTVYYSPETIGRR
ASSAY_TEXT: ELISA, Ab 0.00001 nM
Description: In order to detect the binding activity of CD22 human-murine chimeric antibodies to CD22 protein, the purified human CD22-ECD-His protein obtained in Example 2 was diluted with PBS to a final concentration of 2 μg/mL, and then added to 96-well ELISA plate at 100 μl/well. The plate was sealed with plastic film and incubated overnight at 4° C., the plate was washed 2 times with PBS the next day, and then a blocking solution [PBS+2% (w/w) BSA] was added for blocking at room temperature for 2 hours. […]
METRIC_NAME: OD450 (OD450)
Numeric only. Scale: OD450

Exam item: Note OD450 for the binder shown: F2.127.11 (antibody, human IgG1, lambda, V domains shown, Human-murine chimeric IgG1, lambda) VH: QVTLKESGPGILQPSQTLSLTCSFSGFSLSTFGMGVGWIRQPSGKGLEWLAHIWWDDDKHYNPALKSRLTISKDTSRNQVFLKIANVDTADGATYFCARDNWVSSLDYWGQGTSVIVSS VL: QPVITQSSSASFSLGASAELTCTLSSQHSTYTIEWYQQQPLKPPKYVMGLKKDGSHSTGDGIPDRFSGSSSGADRYLSISNIQPEDEAIYICGVSDTIKEQFVYVFGGGTKVTVLG
Marked response: 0.21

Exam item: Note OD450 for the binder shown: F1.216.2 (antibody, human IgG1, kappa, V domains shown, Human-murine chimeric IgG1, kappa) VH: QVQLQQSGPEVVRPGASVKISCKASGYAFSSSWMNWMKQRPGKALEWIGRIYPGDGDTNYSGEFKVKATLTADKSSSTAYMQLSSLTSEDSAVYFCAREGSYYSNPWYFDYWGQGTTLTVSS VL: DVLVTQTPLSLPVSLGDQASISCRSSQSIVQSNGDTYLEWYLQKPGQSPKLLIYKVSNRFSGVPDRFSGSGSGTDFTLKISRVEAEDLGVYYCFQGSHVPFTFGSGTKLEIKR
Marked response: 0.2
